biological target: human mu opioid receptor (Homo sapiens, UniProt P35372); construct: purchased Perkin Elmer RBHOMM400UA; host or cells: Chinese Hamster Ovary cells (recombinant expression); experiment: Human Mu Opioid Receptor Binding Assay (CHO membranes, 3H-Damgo); settings: read-out: hKi μ
Sequence (P35372 whole entry): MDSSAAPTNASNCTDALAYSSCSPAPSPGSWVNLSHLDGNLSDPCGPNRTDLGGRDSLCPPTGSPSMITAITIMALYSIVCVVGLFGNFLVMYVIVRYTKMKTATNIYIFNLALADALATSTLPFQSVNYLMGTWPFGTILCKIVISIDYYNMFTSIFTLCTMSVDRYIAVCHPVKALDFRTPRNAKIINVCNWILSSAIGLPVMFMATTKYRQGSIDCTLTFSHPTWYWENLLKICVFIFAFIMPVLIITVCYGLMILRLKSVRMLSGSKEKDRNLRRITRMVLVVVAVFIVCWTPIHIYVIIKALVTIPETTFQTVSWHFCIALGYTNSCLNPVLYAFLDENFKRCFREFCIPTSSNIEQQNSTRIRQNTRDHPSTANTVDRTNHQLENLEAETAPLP

{"COMPOUND": "Cc1cc(C(N)=O)cc(C)c1C[C@H](N)C(=O)N(Cc1nc(-c2ccccc2)c[nH]1)[C@@H](C)c1ccccc1 [Cpd 95]", "ASSAYED_TARGET": "human mu opioid receptor (Homo sapiens, UniProt P35372)", "Ki (nM)": 7.8}
{"COMPOUND": "Cc1cc(O)cc(C)c1C[C@H](N)C(=O)N(Cc1ccc(OCc2ccccc2)c(OCc2ccccc2)c1)[C@@H](C)c1nc(-c2ccccc2)c[nH]1 [Cpd 30]", "ASSAYED_TARGET": "human mu opioid receptor (Homo sapiens, UniProt P35372)", "Ki (nM)": 34}
{"COMPOUND": "Cc1cc(O)cc(C)c1C[C@H](N)C(=O)N(Cc1cccc(Oc2ccccc2)c1)[C@@H](C)c1nc(-c2ccccc2)c[nH]1 [Cpd 98]", "ASSAYED_TARGET": "human mu opioid receptor (Homo sapiens, UniProt P35372)", "Ki (nM)": 48}
{"COMPOUND": "Cc1cc(O)cc(C)c1C[C@H](N)C(=O)N(Cc1nc(-c2cccc(F)c2)c(C)[nH]1)C(C)C [Cpd 116]", "ASSAYED_TARGET": "human mu opioid receptor (Homo sapiens, UniProt P35372)", "Ki (nM)": 0.54}
{"COMPOUND": "COC(=O)c1ccc(CN(C(=O)[C@@H](N)Cc2c(C)cc(C(N)=O)cc2C)[C@@H](C)c2nc(-c3ccccc3)c[nH]2)o1 [Cpd 257]", "ASSAYED_TARGET": "human mu opioid receptor (Homo sapiens, UniProt P35372)", "Ki (nM)": 3.4}
{"COMPOUND": "Cc1cc(C(N)=O)cc(C)c1C[C@H](N)C(=O)N(Cc1ccccc1C(N)=O)[C@@H](C)c1nc(-c2ccccc2)c[nH]1 [Cpd 1]", "ASSAYED_TARGET": "human mu opioid receptor (Homo sapiens, UniProt P35372)", "Ki (nM)": 3.6}
{"COMPOUND": "Cc1cc(C(N)=O)cc(C)c1C[C@H](N)C(=O)N(Cc1nc(-c2ccccc2)c[nH]1)C(C)C [Cpd 86]", "ASSAYED_TARGET": "human mu opioid receptor (Homo sapiens, UniProt P35372)", "Ki (nM)": 1}
{"COMPOUND": "Cc1cc(C(N)=O)cc(C)c1C[C@H](N)C(=O)N(Cc1ccccc1C#N)[C@@H](C)c1nc(-c2ccccc2)c[nH]1 [Cpd 2]", "ASSAYED_TARGET": "human mu opioid receptor (Homo sapiens, UniProt P35372)", "Ki (nM)": 2.9}
{"COMPOUND": "Cc1cc(O)cc(C)c1C[C@H](N)C(=O)N(Cc1nc(-c2cc(Cl)cc(Cl)c2)c(C)[nH]1)C(C)C [Cpd 141]", "ASSAYED_TARGET": "human mu opioid receptor (Homo sapiens, UniProt P35372)", "Ki (nM)": 52}
{"COMPOUND": "Cc1cc(O)cc(C)c1C[C@H](N)C(=O)N(Cc1nc(-c2ccccc2)c[nH]1)CC1CC1 [Cpd 192]", "ASSAYED_TARGET": "human mu opioid receptor (Homo sapiens, UniProt P35372)", "Ki (nM)": 0.62}
{"COMPOUND": "CC(C)N(Cc1nc(-c2ccccc2)c[nH]1)C(=O)[C@@H](N)Cc1ccc(O)cc1 [Cpd 195]", "ASSAYED_TARGET": "human mu opioid receptor (Homo sapiens, UniProt P35372)", "Ki (nM)": 9.8}
{"COMPOUND": "C[C@H](c1nc(-c2ccccc2)c[nH]1)N(C)C(=O)[C@@H](N)Cc1ccc(C(N)=O)cc1 [Cpd 203]", "ASSAYED_TARGET": "human mu opioid receptor (Homo sapiens, UniProt P35372)", "Ki (nM)": 13.7}
{"COMPOUND": "Cc1cc(O)cc(C)c1C[C@H](N)C(=O)N(C(C)C)[C@@H](Cc1cccc(CN)c1)c1nc(-c2ccccc2)c[nH]1 [Cpd 120]", "ASSAYED_TARGET": "human mu opioid receptor (Homo sapiens, UniProt P35372)", "Ki (nM)": 20.8}
{"COMPOUND": "Cc1cc(O)cc(C)c1C[C@H](N)C(=O)N(C(C)C)[C@H](CO)c1nc(-c2ccccc2)c[nH]1 [Cpd 63]", "ASSAYED_TARGET": "human mu opioid receptor (Homo sapiens, UniProt P35372)", "Ki (nM)": 58}
